// pKd lookup, one value per entry
Measurement Target: T1, human C1s (human)
T1 chain: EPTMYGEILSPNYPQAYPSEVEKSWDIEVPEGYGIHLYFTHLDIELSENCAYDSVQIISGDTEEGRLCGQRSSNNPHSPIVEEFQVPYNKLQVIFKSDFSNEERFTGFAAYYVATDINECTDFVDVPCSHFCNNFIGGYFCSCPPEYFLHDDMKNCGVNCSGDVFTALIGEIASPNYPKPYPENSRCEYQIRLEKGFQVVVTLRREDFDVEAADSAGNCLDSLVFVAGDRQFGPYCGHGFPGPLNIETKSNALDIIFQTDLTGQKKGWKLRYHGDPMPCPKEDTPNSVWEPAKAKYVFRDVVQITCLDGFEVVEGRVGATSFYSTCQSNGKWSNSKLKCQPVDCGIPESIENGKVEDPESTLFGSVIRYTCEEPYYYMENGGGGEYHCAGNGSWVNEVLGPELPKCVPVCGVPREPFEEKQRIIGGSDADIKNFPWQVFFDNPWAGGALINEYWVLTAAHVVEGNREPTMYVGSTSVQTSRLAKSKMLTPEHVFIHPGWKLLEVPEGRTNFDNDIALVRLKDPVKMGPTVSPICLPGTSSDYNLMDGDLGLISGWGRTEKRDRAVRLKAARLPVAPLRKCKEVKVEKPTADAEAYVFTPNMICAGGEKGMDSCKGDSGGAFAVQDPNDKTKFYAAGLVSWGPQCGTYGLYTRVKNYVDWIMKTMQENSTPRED
Experimental Protocol: SPR pH 5.8 low Ca 37C
pKd: −log10 of the molar value.

Binder: IPN92H0033/IPN009VK3 (antibody, V domains shown) VH: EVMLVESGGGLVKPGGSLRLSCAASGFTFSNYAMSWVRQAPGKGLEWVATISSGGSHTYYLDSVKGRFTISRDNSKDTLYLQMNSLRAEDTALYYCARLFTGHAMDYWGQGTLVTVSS VL: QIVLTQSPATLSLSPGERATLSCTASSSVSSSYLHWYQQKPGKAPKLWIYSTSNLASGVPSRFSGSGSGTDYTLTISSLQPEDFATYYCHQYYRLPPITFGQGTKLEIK
pKd: 8.02
--
Binder: IPN009VH2/IPN93L0021 (antibody, V domains shown) VH: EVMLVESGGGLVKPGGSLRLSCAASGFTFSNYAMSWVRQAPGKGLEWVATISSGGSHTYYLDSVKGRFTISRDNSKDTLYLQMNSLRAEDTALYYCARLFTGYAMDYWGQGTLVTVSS VL: QIVLTQSPATLSLSPGERATLSCTASSSVSSSYLHWYQQKPGKAPKLWIYSTSNLASGVPSRFSGSGSGTDYTLTISSLQPEDFATYYCHQHYRLPPITFGQGTKLEIK
pKd: 8.02
--
Binder: IPN009VH2/IPN009VK3 (antibody, V domains shown) VH: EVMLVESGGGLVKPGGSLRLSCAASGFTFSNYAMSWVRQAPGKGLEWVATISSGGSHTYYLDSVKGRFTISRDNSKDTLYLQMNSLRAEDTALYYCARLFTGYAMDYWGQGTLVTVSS VL: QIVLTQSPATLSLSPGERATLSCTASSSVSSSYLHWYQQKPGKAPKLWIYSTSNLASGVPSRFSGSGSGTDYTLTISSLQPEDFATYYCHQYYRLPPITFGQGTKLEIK
pKd: 8.47
--
Binder: IPN009VH2/IPN93L0024 (antibody, V domains shown) VH: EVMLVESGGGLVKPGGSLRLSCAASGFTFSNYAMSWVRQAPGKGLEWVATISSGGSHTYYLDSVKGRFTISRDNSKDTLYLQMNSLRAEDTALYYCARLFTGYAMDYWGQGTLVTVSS VL: QIVLTQSPATLSLSPGERATLSCTASSSVSSSYLHWYQQKPGKAPKLWIYSTSNLASGVPSRFSGSGSGTDYTLTISSLQPEDFATYYCHQYYRLHPITFGQGTKLEIK
pKd: 7.65

Just for reference, patent US12084513 is where these values come from.
